Source: patent US8987273B2

# pIC50 values compiled below
# Test system: KPL-4 cells
# MEASUREMENT_NOTES: Tumor cell proliferation assay (CellTiter-Glo)
# Format: cell-based
# TEST_SETTINGS: KPL4; 72 h drug exposure
Expect pIC50 as a plain number equal to -log10 of the molar concentration.

Some solved cases for reference:
| COMPOUND | pIC50 |
| --- | --- |
| NC1(c2ccc(-c3nn4c(-c5ccc6cn[nH]c6c5)cnc4cc3-c3ccccc3)cc2)CCC1 [Example 4-16] | 5.29 |
| Cc1nc2cc(-c3ccccc3)c(-c3ccc(C4(N)CCC4)cc3)nn2c1/C=C/C(N)=O [Example 10-0] | 5.60 |
| NC1(c2ccc(-c3nn4c(-c5cccc(CO)c5)cnc4cc3-c3ccccc3)cc2)CCC1 [Example 4-5] | 5.88 |

Kindly indicate its recorded pIC50. Item: Cc1cc(-c2c(C)nc3cc(-c4ccccc4)c(-c4ccc(C5(N)CCC5)cc4)nn23)[nH]n1 [Example 5-6]
5.04

* * *

# Tested on: KPL-4 cells
# MEASUREMENT_NOTES: Tumor cell proliferation assay (CellTiter-Glo)
# Type: cell-based
# TEST_SETTINGS: KPL4; 72 h drug exposure
Structures can show the parent of a compound that is named as a salt.
QUANTITY_NAME: pIC50
Entry type: numeric. Quantity: pIC50, the -log10 of concentration in molar units.

Please give measured pIC50 of the following entry: NC(=O)c1cccc(-c2cnc3cc(-c4ccccc4)c(-c4ccc(C5(N)CCC5)cc4)nn23)c1 [Example 4-11, hydrochloride]
5.85

Fill in pIC50 for record `CCOC(=O)c1cncc(-c2cnc3cc(-c4ccccc4)c(-c4ccc(C5(N)CCC5)cc4)nn23)c1`
5.21

Given `NC1(c2ccc(-c3nn4c(-c5ccc(F)cc5)c(Cl)nc4cc3-c3ccccc3)cc2)CCC1` , respond with its pIC50.
5.52

Give pIC50 for the following compound: `Cc1ccc(-c2cnc3cc(-c4ccccc4)c(-c4ccc(C5(N)CCC5)cc4)nn23)cc1`
5.22

Using known records, supply pIC50 for `CS(=O)(=O)c1ccc(-c2cnc3cc(-c4ccccc4)c(-c4ccc(C5(N)CCC5)cc4)nn23)cc1`
5.73

* * *

# Test system: KPL-4 cells
# MEASUREMENT_NOTES: Tumor cell proliferation assay (CellTiter-Glo)
# Format: cell-based
# TEST_SETTINGS: KPL4; 72 h drug exposure
QUANTITY_NAME: IC50 (nM)
Kindly provide the numeric value in nM only, without the unit symbol.

A selection of reference data follows.
| COMPOUND | TEST_SYSTEM | RESULT_UNIT | IC50 |
| --- | --- | --- | --- |
| Cc1nc2cc(-c3ccccc3)c(-c3ccc(C4(N)CCC4)cc3)nn2c1-c1cccc(C(N)=O)c1 [Example 5-0] | KPL-4 cells | nM | 3850 |
| N#Cc1cccc(-c2cnc3cc(-c4ccccc4)c(-c4ccc(C5(N)CCC5)cc4)nn23)c1 [Example 3-0] | KPL-4 cells | nM | 1710 |

Field: next compound
State its IC50: NC1(c2ccc(-c3nn4c(-c5ccc(S(N)(=O)=O)cc5)cnc4cc3-c3ccccc3)cc2)CCC1 [Example 4-7]
1750

* * *

Measured IC50 values are reported for all entries that follow.
# System: KPL-4 cells
# MEASUREMENT_NOTES: Tumor cell proliferation assay (CellTiter-Glo)
# Format: cell-based
# TEST_SETTINGS: KPL4; 72 h drug exposure
Structures can show the parent of a compound that is named as a salt.
Enter the number, and then the unit.

Some solved entries appear below for comparison.
| COMPOUND | IC50 |
| --- | --- |
| NC1(c2ccc(-c3nn4c(-c5cn[nH]c5)cnc4cc3-c3ccccc3)cc2)CCC1 | 550 nM |
| COC(=O)/C=C/c1c(C)nc2cc(-c3ccccc3)c(-c3ccc(C4(N)CCC4)cc3)nn12 | 5280 nM |
| COC(=O)c1ccc(-c2cnc3cc(-c4ccccc4)c(-c4ccc(C5(N)CCC5)cc4)nn23)cn1 | 6020 nM |
| Cc1nc2cc(-c3ccccc3)c(-c3ccc(C4(N)CCC4)cc3)nn2c1-c1cn[nH]c1 | 2750 nM |
| NC1(c2ccc(-c3nn4c(-c5ccc(F)c(CO)c5)cnc4cc3-c3ccccc3)cc2)CCC1 [Example 4-9, hydrochloride] | 1560 nM |
| NC(=O)c1ccc(-c2cnc3cc(-c4ccccc4)c(-c4ccc(C5(N)CCC5)cc4)nn23)cc1 [Example 4-10, hydrochloride] | 1260 nM |

Determine from records and report IC50 for `Cc1nc2cc(-c3ccccc3)c(-c3ccc(C4(N)CCC4)cc3)nn2c1-c1ccc(C(N)=O)cc1`
2380 nM

Provide one value: measured IC50 of `NC1(c2ccc(-c3nn4c(-c5ccc(F)cc5)cnc4cc3-c3ccccc3)cc2)CCC1`
1910 nM

For the compound `CCc1c(C)nc2cc(-c3ccccc3)c(-c3ccc(C4(N)CCC4)cc3)nn12` , report IC50.
2470 nM

* * *

# System: KPL-4 cells
# MEASUREMENT_NOTES: Tumor cell proliferation assay (CellTiter-Glo)
# Assay type: cell-based
# TEST_SETTINGS: KPL4; 72 h drug exposure
So basically: is IC50 under 2000 nM? Then yes (1). Not under? Then no (0).

Would you please look over these solved cases?
| COMPOUND | CLASS_ASSIGNMENT |
| --- | --- |
| COC(=O)c1cccc(-c2cnc3cc(-c4ccccc4)c(-c4ccc(C5(N)CCC5)cc4)nn23)c1 | no (0) |
| COc1cncc(-c2cnc3cc(-c4ccccc4)c(-c4ccc(C5(N)CCC5)cc4)nn23)c1 | yes (1) |
| NC(=O)/C=C/c1cnc2cc(-c3ccccc3)c(-c3ccc(C4(N)CCC4)cc3)nn12 | no (0) |
| C=Cc1cnc2cc(-c3ccccc3)c(-c3ccc(C4(N)CCC4)cc3)nn12 | yes (1) |
| NC1(c2ccc(-c3nn4c(-c5ccn[nH]5)cnc4cc3-c3ccccc3)cc2)CCC1 | yes (1) |

Quick check: IC50 of `NC1(c2ccc(-c3nn4c(-c5ccc(O)nc5)cnc4cc3-c3ccccc3)cc2)CCC1` under 2000 nM?
no (0)

Identify whether the compound `NC1(c2ccc(-c3nn4c(-c5ccc(CO)cc5)cnc4cc3-c3ccccc3)cc2)CCC1` records IC50 below 2000 nM.
yes (1)

* * *

# System: KPL-4 cells
# MEASUREMENT_NOTES: Tumor cell proliferation assay (CellTiter-Glo)
# Assay type: cell-based
# TEST_SETTINGS: KPL4; 72 h drug exposure
Where a name gives a salt, the structure may show the parent alone.
QUANTITY_NAME: pIC50
Please keep in mind that pIC50 is minus log10 of the molar concentration; only the number is needed.

# annotated cases, reported pIC50 shown
| COMPOUND | QUANTITY_NAME | NUMBER |
| --- | --- | --- |
| N#Cc1ccc(-c2cnc3cc(-c4ccccc4)c(-c4ccc(C5(N)CCC5)cc4)nn23)cc1 [Example 4-1] | pIC50 | 5.69 |
| Cc1nc2cc(-c3ccccc3)c(-c3ccc(C4(N)CCC4)cc3)nn2c1-c1ccc(F)c(CO)c1 [Example 5-1] | pIC50 | 5.68 |
| C=Cc1c(C)nc2cc(-c3ccccc3)c(-c3ccc(C4(N)CCC4)cc3)nn12 [Example 12-0] | pIC50 | 5.49 |
| NC1(c2ccc(-c3nn4c(-c5ccc(F)cc5)c(Br)nc4cc3-c3ccccc3)cc2)CCC1 [Example 6-0] | pIC50 | 5.72 |
| Cc1cn2nc(-c3ccc(C4(N)CCC4)cc3)c(-c3ccccc3)cc2n1 [Example 1-1, hydrochloride] | pIC50 | 5.00 |

Proceeding to the next compound to report its pIC50.
Tell me its pIC50 given Cc1nc2cc(-c3ccccc3)c(-c3ccc(C4(N)CCC4)cc3)nn2c1-c1ccc(F)cc1 [Example 5-3] as the entry.
5.64
